Data credit: patent US9771334B2

System: eclipta prostrata
run description: Herbicidal activity, pot culture method (primary and secondary screening test)
Format: in vivo
condition summary: primary screening, pot culture, 150 g/ha, sprayed at 3-leaf stage, result 15 days later
measured parameter: herbicidal activity inhibition ratio (%), Eclipta prostrata

>>> df
                                   compound  observed
0  Cn1c(=O)n(-c2ccccc2Br)c(=O)c2cc(C(=O)C3=C(O)CCCC3=O)ccc21 [Compound 27]       80%
1  Cn1c(=O)n(-c2cccc(Br)c2)c(=O)c2cc(C(=O)C3=C(O)CC(C)(C)CC3=O)ccc21 [Compound 24]       83%
2  Cn1c(=O)n(-c2cc(C(F)(F)F)ccc2Cl)c(=O)c2cc(C(=O)C3=C(O)CC(C)(C)CC3=O)ccc21 [Compound 61]       20%
3  Cn1c(=O)n(-c2cccc(C(F)(F)F)c2)c(=O)c2cc(C(=O)C3=C(O)CC(C)(C)CC3=O)ccc21 [Compound 51]       80%

---

Test system: setaria viridis
run description: Herbicidal activity, pot culture method (primary and secondary screening test)
Format: in vivo
condition summary: primary screening, pot culture, 150 g/ha, sprayed at 3-leaf stage, result 15 days later
Description: This test example is for describing the herbicidal activity inhibition ratio (%) (the dose is 150 g/ha) of the compound with a structure shown in Formula (I). Primary screening test (pot culture method): The test targets are abutilon theophrasti, digitaria sanguinalis, amaranthus retroflexus, echinochloa crusgalli, eclipta prostrata and setaria viridis. […]
measured parameter: herbicidal activity inhibition ratio (%), Setaria viridis

>>> df
                                   compound     study_system  observed
0  Cc1cccc(-n2c(=O)c3cc(C(=O)C4=C(O)CCCC4=O)ccc3n(C)c2=O)c1 [Compound 17]  setaria viridis       100
1  Cc1ccc(-n2c(=O)c3cc(C(=O)C4=C(O)CC(C)(C)CC4=O)ccc3n(C)c2=O)cc1 [Compound 15]  setaria viridis        75
2  COc1cccc(-n2c(=O)c3cc(C(=O)C4=C(O)CCCC4=O)ccc3n(C)c2=O)c1 [Compound 55]  setaria viridis        25
3  COc1cccc(-n2c(=O)c3cc(C(=O)C4=C(O)CC(C)(C)CC4=O)ccc3n(C)c2=O)c1 [Compound 56]  setaria viridis        60

---

Tested on: setaria viridis
run description: Herbicidal activity, pot culture method (primary and secondary screening test)
Type: in vivo
condition summary: primary screening, pot culture, 150 g/ha, sprayed at 3-leaf stage, result 15 days later
Listing of entries alongside the reported herbicidal activity inhibition ratio (%), Setaria viridis.
measured parameter: herbicidal activity inhibition ratio (%), Setaria viridis

In [3]: df
Out[3]:
                                   compound  result_units  observed
0  Cc1cccc(-n2c(=O)c3cc(C(=O)C4=C(O)CC(C)(C)CC4=O)ccc3n(C)c2=O)c1 [Compound 18]             %        85
1  CC(C)c1cccc(C(C)C)c1-n1c(=O)c2cc(C(=O)C3=C(O)CCCC3=O)ccc2n(C)c1=O [Compound 46]             %        20
2  COc1cccc(Cn2c(=O)n(-c3ccccc3C)c(=O)c3cc(C(=O)C4=C(O)CCCC4=O)ccc32)c1 [Compound 84]             %        10
3  C#CCn1c(=O)n(-c2ccccc2C)c(=O)c2cc(C(=O)C3=C(O)CC(C)(C)CC3=O)ccc21 [Compound 78]             %        10

---

Listing of entries alongside the reported herbicidal activity inhibition ratio (%), Eclipta prostrata.
System: eclipta prostrata
run description: Herbicidal activity, pot culture method (primary and secondary screening test)
Type: in vivo
condition summary: primary screening, pot culture, 150 g/ha, sprayed at 3-leaf stage, result 15 days later
measured parameter: herbicidal activity inhibition ratio (%), Eclipta prostrata

                               smiles_input  observed
0  Cn1c(=O)n(-c2ccc(Cl)cc2Cl)c(=O)c2cc(C(=O)C3=C(O)CCCC3=O)ccc21        20
1  Cn1c(=O)n(-c2c(Cl)cccc2Cl)c(=O)c2cc(C(=O)C3=C(O)CC(C)(C)CC3=O)ccc21        98
2  CCn1c(=O)n(-c2ccc(Cl)cc2)c(=O)c2cc(C(=O)C3=C(O)CCCC3=O)ccc21        83
3  Cc1ccccc1-n1c(=O)c2cc(C(=O)C3=C(O)CCCC3=O)ccc2n(Cc2ccccc2)c1=O         0
4  Cc1ccc(Cl)cc1-n1c(=O)c2cc(C(=O)C3=C(O)CCCC3=O)ccc2n(C)c1=O        83
5  Cc1ccccc1-n1c(=O)c2cc(C(=O)C3=C(O)CC(C)(C)CC3=O)ccc2n(Cc2ccccc2F)c1=O         0
6  Cn1c(=O)n(-c2ccc(Cl)cc2)c(=O)c2cc(C(=O)C3=C(O)CC(C)(C)CC3=O)ccc21        75

---

Tested on: setaria viridis
run description: Herbicidal activity, pot culture method (primary and secondary screening test)
Type: in vivo
condition summary: primary screening, pot culture, 150 g/ha, sprayed at 3-leaf stage, result 15 days later
Label Met when herbicidal activity inhibition ratio (%), Setaria viridis is at or above 60%; otherwise label Not met.

                                   compound  assigned_label
0  Cn1c(=O)n(-c2cccc(Br)c2)c(=O)c2cc(C(=O)C3=C(O)CCCC3=O)ccc21 [Compound 23]         Not met
1  Cc1ccccc1-n1c(=O)c2cc(C(=O)C3=C(O)CCCC3=O)ccc2n(C)c1=O [Compound 20]             Met
2  Cn1c(=O)n(-c2ccc(F)cc2)c(=O)c2cc(C(=O)C3=C(O)CCCC3=O)ccc21 [Compound 9]             Met
3  Cn1c(=O)n(-c2ccccc2C(F)(F)F)c(=O)c2cc(C(=O)C3=C(O)CCCC3=O)ccc21 [Compound 38]             Met
4  Cn1c(=O)n(-c2cc(C(F)(F)F)ccc2Cl)c(=O)c2cc(C(=O)C3=C(O)CCCC3=O)ccc21 [Compound 60]             Met
5  COc1cccc(Cn2c(=O)n(-c3ccccc3C)c(=O)c3cc(C(=O)C4=C(O)CC(C)(C)CC4=O)ccc32)c1 [Compound 81]         Not met
6  CCn1c(=O)n(-c2ccccc2C)c(=O)c2cc(C(=O)C3=C(O)CCCC3=O)ccc21 [Compound 66]             Met

---

Test system: eclipta prostrata
run description: Herbicidal activity, pot culture method (primary and secondary screening test)
Type: in vivo
condition summary: primary screening, pot culture, 150 g/ha, sprayed at 3-leaf stage, result 15 days later
Entry class follows herbicidal activity inhibition ratio (%), Eclipta prostrata: lower range: < 60%; middle range: ≥ 60% and < 80%; upper range: ≥ 80%

                                    molecule  assigned_label
 0  CCCCn1c(=O)n(-c2ccccc2C)c(=O)c2cc(C(=O)C3=C(O)CCCC3=O)ccc21 [Compound 73]     lower range
 1  COc1ccc(-n2c(=O)c3cc(C(=O)C4=C(O)CC(C)(C)CC4=O)ccc3n(C)c2=O)cc1 [Compound 58]    middle range
 2  CCCn1c(=O)n(-c2ccccc2C)c(=O)c2cc(C(=O)C3=C(O)CCCC3=O)ccc21 [Compound 71]     upper range
 3  Cn1c(=O)n(-c2ccc([N+](=O)[O-])cc2)c(=O)c2cc(C(=O)C3=C(O)CCCC3=O)ccc21 [Compound 45]     upper range
 4  CC1CC(=O)C(C(=O)c2ccc3c(c2)c(=O)n(-c2ccc(Cl)cc2Cl)c(=O)n3C)=C(O)C1 (stereo not drawn) [Compound 64]     lower range
 5  CC1CC(=O)C(C(=O)c2ccc3c(c2)c(=O)n(-c2ccc(Br)cc2)c(=O)n3C)=C(O)C1 (stereo not drawn) [Compound 90]     upper range
 6  Cn1c(=O)n(-c2cccc(Br)c2)c(=O)c2cc(C(=O)C3=C(O)CCCC3=O)ccc21 [Compound 23]     lower range
 7  Cn1c(=O)n(-c2ccccc2Br)c(=O)c2cc(C(=O)C3=C(O)CC(C)(C)CC3=O)ccc21 [Compound 28]     upper range
 8  COc1cccc(-n2c(=O)c3cc(C(=O)C4=C(O)CCCC4=O)ccc3n(C)c2=O)c1 [Compound 55]    middle range
 9  Cc1cc(C)c(-n2c(=O)c3cc(C(=O)C4=C(O)CCCC4=O)ccc3n(C)c2=O)c(C)c1 [Compound 67]     lower range
10  Cn1c(=O)n(-c2ccccc2)c(=O)c2cc(C(=O)C3=C(O)CCCC3=O)ccc21 [Compound 35]    middle range
11  COc1ccccc1-n1c(=O)c2cc(C(=O)C3=C(O)CCCC3=O)ccc2n(C)c1=O [Compound 29]    middle range
12  Cn1c(=O)n(-c2ccccc2OC(F)(F)F)c(=O)c2cc(C(=O)C3=C(O)CCCC3=O)ccc21 [Compound 39]     upper range
